Test system: HIPK1
CONDITION LABEL: concentration: 1 μM,replicates: in singlicate; n = 1;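 also: KINOMEscan kinase panel screen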
For each record, write down the corresponding %Inh.
Expressed in %, but write only the number.

Which %Inh reading was recorded for the compound Cn1ccc2ncnc(Oc3ccc(NC(=O)Nc4cnn(C(C)(C)C)c4)c(Cl)c3)c21 ? 26

Look up %Inh for this compound: CCn1c(-c2nonc2N)nc2cncc(CNC3CCNCC3)c21.Cl [SB-747651] 0

For the compound Cn1ccc2ncnc(Oc3ccc(NC(=O)Nc4cccc(C(F)(F)F)c4)c(Cl)c3)c21 , what %Inh is on record? 26

---

Tested on: DCAMKL2
Construct: gene DCLK2
CONDITION LABEL: concentration: 1 μM,replicates: in singlicate; n = 1
Outcome: yes (1) for %Inh of at least 3%; no (0) for anything lower.

Confirm if %Inh reported for the molecule CN(c1ccc2c(c1)nc(NCc1ccc(F)cc1)n2C)c1ccnc(Nc2ccc(CS(C)(=O)=O)cc2)n1.Cl [GW813244] is 3% or above. no (0)

Decide: %Inh of Cc1ccn2nc(-c3ccc(F)cc3)c(-c3ccncc3)c2c1.Cl [GW457859] >= 3%? no (0)

Please indicate if the recorded %Inh for CC(C)S(=O)(=O)N1CCN(Cc2ccc3c(c2)nc(NC(=O)c2ccsc2)n3C[C@H](O)c2ccccc2)CC1 [GW635815] meets or exceeds 3%. no (0)

Could you verify whether the entry COC(=O)c1cccc(NC(=O)NC2CCN(c3ccnc(Nc4cc(OC)c(OC)c(OC)c4)n3)C2)c1 (stereo not shown) [GSK1379767] shows %Inh of no less than 3%? no (0)

Threshold query (%Inh >= 3%) on CC(=O)Nc1ccc(-c2cc3ncnc(SCC(=O)O)c3s2)cc1 yes (1)

Check the entry COc1cccc(C2=C(Nc3cccc(Cl)c3)C(=O)NC2=O)c1 [SB-341556] : does %Inh equal or exceed 3%? no (0)

Form field: %Inh at least 3%? Entry: CCn1c(-c2nonc2N)nc2cncc(CNC3CCNCC3)c21.Cl [SB-747651] no (0)

Assess whether reported %Inh for COc1cccc(OC)c1C(=O)Nc1cccc(-c2nn3ccccc3c2-c2ccnc(Nc3cccc(F)c3)n2)c1 [GSK361065] sits at 3% or higher. no (0)

Tell me whether %Inh is at least 3% here: CN1CCN(CCNc2nc3cc(Oc4ccc(NC(=O)Nc5cc(C(F)(F)F)ccc5F)cc4)ccc3[nH]2)CC1.Cl.Cl [GW768504] yes (1)

Check this molecule for %Inh at or above 3%: Cc1ccc(CC(=O)N2CCc3cc(-c4cn(C)c5ncnc(N)c45)ccc32)cc1 [GSK2634758] no (0)

Confirm if %Inh reported for the molecule O=C(NOCC1CC1)c1cc(Br)c(F)c(F)c1Nc1ccc(I)cc1Cl is 3% or above. no (0)

For this molecule, is measured %Inh 3% or higher? CS(=O)(=O)c1cccc(CNc2nc(Nc3ccc4c(c3)[C@@H]3C[C@@H]4CNC3=O)ncc2C(F)(F)F)c1 no (0)

Please tell me: is the molecule CS(=O)c1ccc(-c2coc3ccc(-c4n[nH]c(=O)o4)cc23)cc1 (stereo not shown) at or over 3% in terms of %Inh? no (0)

Please indicate if the recorded %Inh for C[C@@H]1CNc2c(sc3ccc4nc(-c5ccncc5)ccc4c23)C(=O)N1 meets or exceeds 3%. no (0)

Does the reported %Inh for Cn1ccc2ncnc(Oc3ccc(NC(=O)Nc4cnn(C(C)(C)C)c4)c(Cl)c3)c21 fall at or above the 3% mark? yes (1)

Record COc1cccc(CNC(=O)NC2CCN(c3ccnc(Nc4cc(OC)c(OC)c(OC)c4)n3)C2)c1 (stereo not shown) [GSK1379765] ; criterion: %Inh no lower than 3%. Met? yes (1)

Check if %Inh >= 3% (inclusive). Item: Cc1cccc2c(-c3ccncc3)c(-c3ccc(F)cc3)nn12.Cl [GW461487] no (0)

Reported %Inh reaches at least 3% for Cn1cc(-c2cccc3c(N)c(C(N)=O)nnc23)cn1 ? yes (1)

Quick check, %Inh >= 3%? C[C@@H](Oc1cc(-n2cnc3ccc(-c4ccncc4)cc32)sc1C(N)=O)c1ccccc1Cl [GSK483724] yes (1)

For this molecule, is measured %Inh 3% or higher? O=C(Nc1cccc(C(F)(F)F)c1)c1cccc(Oc2ccc3nccn3n2)c1 yes (1)

For this molecule, is measured %Inh 3% or higher? CCN1CCN(CCCC(=O)Nc2n[nH]c3nc(-c4ccc(O)cc4)c(Br)cc23)CC1 [SB-731579] yes (1)

Does N#Cc1cccc(C(=O)NC2CCN(c3ccnc(Nc4ccc(F)cc4)n3)C2)c1 (stereo not shown) [GSK1379708] have a reported %Inh of at least 3%? yes (1)

# check: %Inh of CC(=O)Nc1nc2cnc(Nc3cc(NC(=O)c4cccc(CC(C)(C)C#N)c4)ccc3C)nc2s1 is greater than or equal to 3% yes (1)

Is the recorded value of %Inh equal to or greater than 3% for this molecule? FC(F)(F)c1cc(Br)cc(Nc2nccc(-c3cnn4ncccc34)n2)c1 [GW810578] yes (1)

Say whether COc1cc(Nc2nccc(N3CCC(NC(=O)c4cccc(C#N)c4)C3)n2)cc(OC)c1OC (stereo not shown) [GSK1379751] shows %Inh of 3% or more. no (0)

Hello, I need to know if OCCn1cc(-c2cnc3nnn(Cc4ccc5ncccc5c4)c3n2)cn1 has measured %Inh not below 3%. Thanks! no (0)

Say whether Cn1ccc2ncnc(Oc3ccc(NC(=O)Nc4cncc(C(F)(F)F)c4)c(Cl)c3)c21 shows %Inh of 3% or more. no (0)

Check this molecule for %Inh at or above 3%: CNC(=O)c1ccccc1Nc1nc(Nc2cccc(CS(C)(=O)=O)c2)ncc1C.O=CO [GSK1520489] yes (1)

Could you tell me if the measured %Inh of Cl.c1ccc(Oc2ccc(Nc3ccnc4cc(-c5ccc(CN6CCNCC6)o5)ccc34)cc2)nc1 [GW567142] reaches 3% or more? no (0)

Quick check, %Inh >= 3%? Cn1ccc2ncnc(Oc3ccc(NC(=O)Nc4ccnc(C(F)(F)F)c4)c(Cl)c3)c21 no (0)

Item CN(c1cccc(CNc2nc(Nc3ccc4c(c3)CC(=O)N4)ncc2C(F)(F)F)c1)S(C)(=O)=O with %Inh of 3% or above? yes (1)

hey, is %Inh for this one >= 3%? O=C(Nc1ccc(Oc2ccc3nc(NC(=O)C4CC4)cn3n2)c(F)c1)c1cccn(-c2ccccc2)c1=O yes (1)

Can COC(=O)c1cccc(NC(=O)NC2CCN(c3ccnc(NCc4ccc(F)cc4)n3)CC2)c1 [GSK1379860] be said to have %Inh at or above 3%? yes (1)

---

Test system: FGFR3
CONDITION LABEL: concentration: 1 μM,replicates: in singlicate; n = 1
Record form. Attribute: %Inh. Fill in for each entry.
Value expressed in %; do not type the unit.

For Cc1ccc(C(=O)Nc2ccc(Oc3ccc4nc(NC(=O)C5CC5)cn4c3)c(F)c2)c(=O)n1-c1ccccc1 , what is its reported %Inh? 11

Fill blank: measured %Inh of the compound NC(=O)c1ccc(-c2cc3ncnc(SCC(=O)O)c3s2)cc1 is ____. 0

If you can, please state the reported %Inh value of O=c1[nH]cc(-c2ccc(O)cc2)c2sc(-c3ccncc3)cc12 . 16

Using the record for Cn1ccc2ncnc(Oc3ccc(NC(=O)Nc4cnn(C(C)(C)C)c4)c(Cl)c3)c21 , report its %Inh. 1

Please give the measured %Inh for this compound: CCCC(=O)Nc1n[nH]c2ncccc12 0

Record request: %Inh value, item CNC(=O)c1ccccc1Nc1nc(Nc2cccc(CS(C)(=O)=O)c2)ncc1C.O=CO 99.8

%Inh for COc1cccc(CNC(=O)NC2CCN(c3ccnc(Nc4cc(OC)c(OC)c(OC)c4)n3)C2)c1 (stereo not drawn) ? 23

What value of measured %Inh is listed for CC(C)c1nc(-c2cccc(NS(=O)(=O)c3ccccc3)c2)c(-c2ccnc(Nc3ccc4c(c3)CN(C)CC4)n2)s1 ? 35

Data request, read-out %Inh, for Cc1ccn2nc(-c3ccc(F)cc3)c(-c3ccncc3)c2c1.Cl 4

Consider the compound shown here: CC(=O)Nc1nc2cnc(Nc3cc(NC(=O)c4cccc(CC(C)(C)C#N)c4)ccc3C)nc2s1 What is its recorded %Inh? 4

Which measured %Inh value corresponds to Cc1ccc2c(-c3ccnc(Nc4ccc(C(F)(F)F)cc4)n3)cnn2n1 ? 0

Which %Inh value belongs to COc1ccc(Nc2nccc(N3CCC(NC(=O)c4cccc(C#N)c4)C3)n2)cc1 (stereo not drawn) ? 4

Entry under review: CC(C(=O)NC1CCN(c2ccnc(Nc3ccc(F)cc3)n2)C1)c1ccc(Cl)cc1 (stereo not drawn) . Reported %Inh? 9

Quick one: %Inh of c1ccc(Oc2ccc(Nc3ccnc4ccc(-c5ccccn5)cc34)cc2)cc1 ? 25

Requested field: %Inh. Item: CS(=O)c1ccc(-c2coc3ccc(-c4n[nH]c(=O)o4)cc23)cc1 (stereo not drawn) 3

Can you look up the measured %Inh of FC(F)(F)c1cc(Br)cc(Nc2nccc(-c3cnn4ncccc34)n2)c1 for me? 0

# query: %Inh of entry Cc1nnc(-c2ccc3occ(-c4ccc(S(C)=O)cc4)c3n2)o1 (stereo not drawn) 0

Returns the measured %Inh for the input compound. Input: O=C(Nc1ccccc1)c1cccc(Oc2ccc3nccn3n2)c1 20
